As shown below, each of these binders has a reported Kd value.
# target.or.system: T1, human TfR ectodomain fused to a mouse IgG1 Fc fragment (human, UniProt P02786 89-760)
# T1 construct: extracellular domain; ectodomain fused to the N-terminal end of the Fc, made in-house; not shown: mouse IgG1 Fc fragment
# T1 sequence (P02786 89-760): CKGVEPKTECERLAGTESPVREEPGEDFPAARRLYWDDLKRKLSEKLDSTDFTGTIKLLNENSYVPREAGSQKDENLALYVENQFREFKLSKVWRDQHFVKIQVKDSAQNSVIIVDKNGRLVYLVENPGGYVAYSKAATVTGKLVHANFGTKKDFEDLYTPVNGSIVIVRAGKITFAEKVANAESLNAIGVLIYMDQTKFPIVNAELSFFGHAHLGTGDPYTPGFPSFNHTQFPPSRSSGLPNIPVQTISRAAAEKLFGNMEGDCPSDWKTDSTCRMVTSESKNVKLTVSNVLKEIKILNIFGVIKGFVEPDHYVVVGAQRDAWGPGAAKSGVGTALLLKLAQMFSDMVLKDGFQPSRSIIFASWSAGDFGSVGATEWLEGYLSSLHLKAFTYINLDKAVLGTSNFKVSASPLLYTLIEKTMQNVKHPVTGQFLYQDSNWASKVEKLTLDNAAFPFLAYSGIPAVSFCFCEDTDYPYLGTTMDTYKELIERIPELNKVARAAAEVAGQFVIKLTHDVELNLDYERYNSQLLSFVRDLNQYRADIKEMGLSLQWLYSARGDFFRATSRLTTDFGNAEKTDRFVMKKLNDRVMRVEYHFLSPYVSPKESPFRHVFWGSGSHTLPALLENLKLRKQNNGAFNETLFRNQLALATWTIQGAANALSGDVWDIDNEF
# protocol.details: SPR, kinetic
Answer format: numeric, nM implied, no suffix.

Here are 3 binders together with their reported answers.
1) B8^V16 (VHH) VHH: EVQLVESGGGVVQPGGSLRLSCAASGEIFSINFMRWYRQAPGKQREQVAGFTRDGSTNYPDSAKGRFTISRDNAKNTVYLQIDSLKPEDTAVYYCYMLDTWGQGTQVTVSS : 12.8
2) B8^V34 (VHH) VHH: EVQLVESGGGVVQPGGSLRLSCAASGEIRSINFMRWYRQAPGKQREWVAGFTRDGSTNYPDIAKGRFTISRDNAKNTVYLQIDSLKPEDTAVYYCYMLDTWGQGTQVTVSS : 33.3
3) C5^h22 (VHH) VHH: EVQLVESGGGVVQPGGSLRLSCAASGTDFSINFIRWYRQAPGKGREFVAGFTATGNTNYADSVKGRFTISRDNAKNTLYLQMNSLRPEDTAVYYCYMLDKWGQGTQVTVSS : 8.96

// next item, Kd requested
Problem: Can you share its Kd? I mean this binder: B8^V40 (VHH) VHH: EVQLVESGGGVVQPGGSLRLSCAASGEIKSINFMRWYRQAPGKQREWVSGFTRDGSTNYPDSAKGRFTISRDNAKNTVYLQIDSLKPEDTAVYYCYMLDTWGQGTQVTVSS
Solution: 42.1
